This collection of values is drawn from paper PMC10661964.

Test: Plasma PK of total radioactivity, [14C]-nifurtimox and metabolites after oral dosing (HPLC-LSC)
Format: in vivo
Settings: rat; male Wistar rats, single oral 2.5 mg/kg [14C]-nifurtimox, plasma, interval up to 8 h; read-out: t½ (converted)
value_type: half-life
The answer consists of two parts: a number and, after it, its unit.

# molecule, value_type, test_result
records = [
    ("CC(=O)NC(CSc1ccc(=O)n(N2CCS(=O)(=O)CC2C)c1)C(=O)O (stereo not drawn) [M-5]", "half-life", "3.76 h"),
    ("CC1CS(=O)(=O)CCN1n1cc(SCC(N)C(=O)O)ccc1=O (stereo not drawn) [M-4]", "half-life", "12.3 h"),
]

Continue with the molecule presented below.
Challenge: Would you kindly share the measured half-life for CC1CS(=O)(=O)CCN1/N=C/C(=O)CCC#N (stereo not drawn) [M-1] ?
Response given: 1.36 h

====

Experiment: in vitro
Details: rat, plasma
value_type: fraction unbound
Give bare numbers.

Challenge: Would you kindly share the measured fraction unbound for CC1CS(=O)(=O)CCN1/N=C/c1ccc([N+](=O)[O-])o1 (stereo not shown) [Nifurtimox, reference compound] ?
Response given: 0.621

====

Experiment: Quantification of nifurtimox and metabolites in rat plasma after a single high dose (200 mg/kg)
Format: in vivo, Wistar rats
Conditions: male, Wistar, rat, plasma, po, 200 mg/kg; read-out: AUC, male animals
value_type: AUC (µM·h)
Answers are plain numbers, in µM·h.

Can you give me AUC for all of these, one by one?
1. CC1CS(=O)(=O)CCN1/N=C/C(CCC(=O)O)=N\O (stereo not shown) [M-2]
2. CC1CS(=O)(=O)CCN1/N=C/C(=O)CCC#N (stereo not shown) [M-1]
3. CC1CS(=O)(=O)CCN1N (stereo not shown) [M-6]
4. CC1CS(=O)(=O)CCN1/N=C/c1ccc([N+](=O)[O-])o1 (stereo not shown) [Nifurtimox, reference compound]
5. CC1CS(=O)(=O)CCN1/N=C/C(=O)CCC(=O)O (stereo not shown) [M-3]
6. CC1CS(=O)(=O)CCN1n1cc(SCC(N)C(=O)O)ccc1=O (stereo not shown) [M-4]
7. CC(=O)NC(CSc1ccc(=O)n(N2CCS(=O)(=O)CC2C)c1)C(=O)O (stereo not shown) [M-5]

Response given:
[13.4, 46.6, 148, 184, 10.1, 9.77, 8.02]

====

Assay: Quantification of nifurtimox and metabolites in rat plasma after a single high dose (200 mg/kg)
Format: in vivo, Wistar rats
Settings: female, Wistar, rat, plasma, po, 200 mg/kg; read-out: t½, female animals (converted)
Field: half-life. Provide a value for each of the compounds that follow.
Answers are plain numbers, in h.

Can you give me half-life for all of these, one by one?
1. CC(=O)NC(CSc1ccc(=O)n(N2CCS(=O)(=O)CC2C)c1)C(=O)O (stereo not shown) [M-5]
2. CC1CS(=O)(=O)CCN1N (stereo not shown) [M-6]
3. CC1CS(=O)(=O)CCN1n1cc(SCC(N)C(=O)O)ccc1=O (stereo not shown) [M-4]
4. CC1CS(=O)(=O)CCN1/N=C/C(=O)CCC(=O)O (stereo not shown) [M-3]
5. CC1CS(=O)(=O)CCN1/N=C/C(=O)CCC#N (stereo not shown) [M-1]

Response given:
25.3
13.5
18.6
5.8
4.6

Can you give me half-life for all of these, one by one?
1. CC1CS(=O)(=O)CCN1/N=C/C(CCC(=O)O)=N\O (stereo not shown) [M-2]
2. CC1CS(=O)(=O)CCN1/N=C/c1ccc([N+](=O)[O-])o1 (stereo not shown) [Nifurtimox, reference compound]

Response given:
[8.5, 5]

====

Experiment: Plasma PK of total radioactivity, [14C]-nifurtimox and metabolites after oral dosing (HPLC-LSC)
Assay type: in vivo
Conditions: male Wistar rats, single oral 2.5 mg/kg [14C]-nifurtimox, pooled plasma
value_type: AUC(0-tn) (µg-eq*h/L)
Give bare numbers, in µg-eq*h/L.

# compound, AUC(0-tn) (µg-eq*h/L)
data = [
    ("CC1CS(=O)(=O)CCN1/N=C/c1ccc([N+](=O)[O-])o1 (stereo not shown) [Nifurtimox, reference compound]", 1570),
    ("CC1CS(=O)(=O)CCN1n1cc(SCC(N)C(=O)O)ccc1=O (stereo not shown) [M-4]", 107),
    ("CC1CS(=O)(=O)CCN1/N=C/C(=O)CCC#N (stereo not shown) [M-1]", 715),
]

Continue with the compound presented below.
Challenge: Would you kindly share the measured AUC(0-tn) for CC(=O)NC(CSc1ccc(=O)n(N2CCS(=O)(=O)CC2C)c1)C(=O)O (stereo not shown) [M-5] ?
Response given: 102

====

Test: Quantification of nifurtimox and metabolites in rat plasma after a single high dose (200 mg/kg)
Assay type: in vivo, Wistar rats
Conditions: male, Wistar, rat, plasma, po, 200 mg/kg; read-out: tmax, male animals
Field: Tmax. Provide a value for each of the molecules that follow.

See these solved cases before continuing.
# molecule, Tmax
rows = [
    ("CC1CS(=O)(=O)CCN1/N=C/C(=O)CCC#N (stereo not shown)", "24 h"),
    ("CC1CS(=O)(=O)CCN1n1cc(SCC(N)C(=O)O)ccc1=O (stereo not shown)", "2 h"),
    ("CC1CS(=O)(=O)CCN1/N=C/c1ccc([N+](=O)[O-])o1 (stereo not shown) [Nifurtimox, reference compound]", "2 h"),
]

Can you give me Tmax for all of these, one by one?
1. CC1CS(=O)(=O)CCN1N (stereo not shown)
2. CC(=O)NC(CSc1ccc(=O)n(N2CCS(=O)(=O)CC2C)c1)C(=O)O (stereo not shown)
3. CC1CS(=O)(=O)CCN1/N=C/C(CCC(=O)O)=N\O (stereo not shown)
4. CC1CS(=O)(=O)CCN1/N=C/C(=O)CCC(=O)O (stereo not shown)

Response given:
24 h
3 h
2 h
1 h

====

Assay: Plasma PK of total radioactivity, [14C]-nifurtimox and metabolites after oral dosing (HPLC-LSC)
Type: in vivo
Details: male Wistar rats, single oral 2.5 mg/kg [14C]-nifurtimox, pooled plasma
value_type: AUC (µg-eq*h/L)
Numbers only, in µg-eq*h/L.

See these solved cases before continuing.
# compound, test_result
measured = [
    ("CC1CS(=O)(=O)CCN1n1cc(SCC(N)C(=O)O)ccc1=O (stereo not shown) [M-4]", 791),
    ("CC(=O)NC(CSc1ccc(=O)n(N2CCS(=O)(=O)CC2C)c1)C(=O)O (stereo not shown) [M-5]", 177),
    ("CC1CS(=O)(=O)CCN1/N=C/c1ccc([N+](=O)[O-])o1 (stereo not shown) [Nifurtimox, reference compound]", 1730),
]

Continue with the compound presented below.
Challenge: Would you kindly share the measured AUC for CC1CS(=O)(=O)CCN1/N=C/C(=O)CCC#N (stereo not shown) [M-1] ?
Response given: 767

====

Experiment: Unbound fraction (fu) in human plasma
Format: in vitro ADME
value_type: fraction unbound
Give bare numbers.

See these solved cases before continuing.
# compound, fraction unbound
records = [
    ("CC1CS(=O)(=O)CCN1n1cc(SCC(N)C(=O)O)ccc1=O (stereo not drawn)", 1),
    ("CC1CS(=O)(=O)CCN1/N=C/c1ccc([N+](=O)[O-])o1 (stereo not drawn) [Nifurtimox, reference compound]", 0.576),
]

Challenge: Would you kindly share the measured fraction unbound for CC1CS(=O)(=O)CCN1N (stereo not drawn) ?
Response given: 1

====

Field: pIC50. Provide a value for each of the molecules that follow.
Target: MATE1 (Homo sapiens)
Sequence (Q96FL8 whole entry): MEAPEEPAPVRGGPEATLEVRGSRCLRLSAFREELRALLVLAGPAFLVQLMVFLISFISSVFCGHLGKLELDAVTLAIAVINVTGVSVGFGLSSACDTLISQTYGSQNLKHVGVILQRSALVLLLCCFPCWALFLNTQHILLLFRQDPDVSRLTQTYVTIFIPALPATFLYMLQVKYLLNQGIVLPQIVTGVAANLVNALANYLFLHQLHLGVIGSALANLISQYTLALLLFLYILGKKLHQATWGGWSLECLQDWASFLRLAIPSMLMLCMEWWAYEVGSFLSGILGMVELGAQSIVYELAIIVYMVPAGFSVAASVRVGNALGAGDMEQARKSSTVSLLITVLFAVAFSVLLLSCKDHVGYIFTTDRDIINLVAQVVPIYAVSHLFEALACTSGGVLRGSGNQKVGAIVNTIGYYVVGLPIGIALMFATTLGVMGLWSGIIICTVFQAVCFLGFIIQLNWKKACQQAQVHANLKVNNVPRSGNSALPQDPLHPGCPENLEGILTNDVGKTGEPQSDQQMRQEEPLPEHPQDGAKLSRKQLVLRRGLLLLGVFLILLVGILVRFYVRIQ
Assay: MATE1 transport assay in overexpressing HEK293 cells
Settings: probe substrate metformin 20 µM
pIC50: −log10 of the molar value.

# molecule, pIC50
measured = [
    ("CC1CS(=O)(=O)CCN1/N=C/c1ccc([N+](=O)[O-])o1 (stereo not drawn) [Nifurtimox, reference compound]", "< 4.70"),
    ("CC1CS(=O)(=O)CCN1n1cc(SCC(N)C(=O)O)ccc1=O (stereo not drawn) [M-4]", "< 5.30"),
]

Challenge: Any idea what pIC50 came out for CC1CS(=O)(=O)CCN1N (stereo not drawn) [M-6] on MATE1 (Homo sapiens)?
Response given: < 4.52

====

Biological target: P-gp (Homo sapiens)
Sequence (P08183 whole entry): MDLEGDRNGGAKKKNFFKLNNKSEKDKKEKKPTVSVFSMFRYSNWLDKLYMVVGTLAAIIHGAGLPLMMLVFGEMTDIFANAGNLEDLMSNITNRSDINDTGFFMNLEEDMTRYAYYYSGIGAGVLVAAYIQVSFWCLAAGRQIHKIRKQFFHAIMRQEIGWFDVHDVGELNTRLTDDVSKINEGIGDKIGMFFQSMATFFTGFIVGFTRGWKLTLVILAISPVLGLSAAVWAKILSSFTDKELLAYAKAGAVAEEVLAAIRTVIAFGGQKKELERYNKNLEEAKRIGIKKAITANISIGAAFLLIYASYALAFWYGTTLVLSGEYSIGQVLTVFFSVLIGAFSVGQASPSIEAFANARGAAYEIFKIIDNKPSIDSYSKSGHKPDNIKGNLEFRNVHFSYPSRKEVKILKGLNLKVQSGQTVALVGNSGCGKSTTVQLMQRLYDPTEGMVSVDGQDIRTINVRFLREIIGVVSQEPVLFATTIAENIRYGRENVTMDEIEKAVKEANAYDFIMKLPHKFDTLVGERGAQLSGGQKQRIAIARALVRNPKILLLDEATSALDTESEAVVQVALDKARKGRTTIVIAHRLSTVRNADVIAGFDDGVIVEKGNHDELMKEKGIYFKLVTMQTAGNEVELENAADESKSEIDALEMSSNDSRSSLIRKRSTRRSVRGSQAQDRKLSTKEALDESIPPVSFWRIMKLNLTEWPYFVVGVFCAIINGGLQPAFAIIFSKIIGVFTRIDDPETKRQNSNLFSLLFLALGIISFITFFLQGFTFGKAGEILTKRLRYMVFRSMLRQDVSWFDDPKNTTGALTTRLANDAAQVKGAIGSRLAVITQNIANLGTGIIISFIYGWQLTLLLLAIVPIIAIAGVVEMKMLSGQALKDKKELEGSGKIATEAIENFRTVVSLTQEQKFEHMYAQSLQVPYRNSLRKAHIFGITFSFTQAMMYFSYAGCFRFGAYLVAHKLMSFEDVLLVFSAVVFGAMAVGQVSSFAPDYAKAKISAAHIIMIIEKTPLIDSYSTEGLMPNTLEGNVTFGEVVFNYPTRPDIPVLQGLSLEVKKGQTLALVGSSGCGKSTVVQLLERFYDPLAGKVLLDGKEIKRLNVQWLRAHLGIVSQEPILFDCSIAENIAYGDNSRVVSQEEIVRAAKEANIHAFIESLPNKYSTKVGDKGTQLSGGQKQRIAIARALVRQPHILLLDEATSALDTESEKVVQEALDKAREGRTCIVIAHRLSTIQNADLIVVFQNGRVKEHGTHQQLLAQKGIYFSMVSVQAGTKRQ
Assay: Efflux transporter inhibition
Type: in vitro ADME
Details: probe substrate digoxin; for M-4 the highest test concentration of 20 µM was not valid
value_type: IC50

See these solved cases before continuing.
# molecule, test_result
data = [
    ("CC1CS(=O)(=O)CCN1n1cc(SCC(N)C(=O)O)ccc1=O (stereo not drawn) [M-4]", "> 5 µM"),
    ("CC1CS(=O)(=O)CCN1N (stereo not drawn) [M-6]", "> 200 µM"),
]

Continue with the molecule presented below.
Challenge: Would you kindly share the measured IC50 for CC1CS(=O)(=O)CCN1/N=C/c1ccc([N+](=O)[O-])o1 (stereo not drawn) [Nifurtimox, reference compound] ?
Response given: > 100 µM
